Exercise: state measured maximum observed lethal fraction for each of the compounds provided.
System: U2OS BCL2L12-KO
EXPERIMENT: maximum observed lethal fraction; higher = more cell death;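 further: FLICK assay: SYTOX Green fluorescence of dead cells tracked over time after drugging in 96-well plates, with total cell counts taken from Triton X-100 lysed wells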
SETTINGS: 0.1 µM
Give bare numbers.

Known maximum observed lethal fraction results, listed for orientation:
Ask: Tell me its maximum observed lethal fraction given "CN(C)C(=O)c1cc2cnc(Nc3ccc(N4CCNCC4)cn3)nc2n1C1CCCC1" as the entry.
Result: 0.0587

Ask: Tell me its maximum observed lethal fraction given "CN1CC[C@H](c2c(O)cc(O)c3c(=O)cc(-c4ccccc4Cl)oc23)[C@H](O)C1" as the entry.
Result: 0.1

Ask: Tell me its maximum observed lethal fraction given "CC[C@@]1(O)C(=O)OCc2c1cc1n(c2=O)Cc2cc3c(CN(C)C)c(O)ccc3nc2-1" as the entry.
Result: 0.0819

Ask: Tell me its maximum observed lethal fraction given "Cc1c2oc3c(C)ccc(C(=O)N[C@@H]4C(=O)N[C@H](C(C)C)C(=O)N5CCC[C@H]5C(=O)N(C)CC(=O)N(C)[C@@H](C(C)C)C(=O)O[C@@H]4C)c3nc-2c(C(=O)N[C@@H]2C(=O)N[C@H](C(C)C)C(=O)N3CCC[C@H]3C(=O)N(C)CC(=O)N(C)[C@@H](C(C)C)C(=O)O[C@@H]2C)c(N)c1=O" as the entry.
Result: 0.254

Ask: Tell me its maximum observed lethal fraction given "Cc1[nH]c2ccccc2c1CCNCc1ccc(/C=C/C(=O)NO)cc1" as the entry.
Result: 0.856

Ask: Tell me its maximum observed lethal fraction given "CC(=O)c1c(C)c2cnc(Nc3ccc(N4CCNCC4)cn3)nc2n(C2CCCC2)c1=O" as the entry.
Result: 0.0667

Next:
Ask: Tell me its maximum observed lethal fraction given CC(C)[C@]12O[C@H]1[C@@H]1O[C@]13[C@]1(O[C@H]1C[C@H]1C4=C(CC[C@@]13C)C(=O)OC4)[C@@H]2O [Triptolide] as the entry.
Result: 0.23

====

Test system: U2OS
EXPERIMENT: maximum observed lethal fraction; higher = more cell death
SETTINGS: 0.0316 µM
VALUE_KIND: maximum observed lethal fraction

Ask: Tell me its maximum observed lethal fraction given CC(=O)N[C@H]1[C@@H](O[C@@H]2O[C@H](CC(O)[C@H]3O[C@@H](n4ccc(=O)[nH]c4=O)[C@H](O)[C@@H]3O)[C@H](O)[C@H](O)[C@H]2NC(=O)/C=C/CC(C)C)O[C@H](CO)[C@@H](N)[C@@H]1O (stereo partly drawn) as the entry.
Result: 0.0561

Parameter requested: maximum observed lethal fraction. Apply to each item below.
1. CC(=O)[C@]1(O)Cc2c(O)c3c(c(O)c2[C@@H](O[C@H]2C[C@H](N)[C@H](O)[C@H](C)O2)C1)C(=O)c1ccccc1C3=O
2. CN(C)C/C=C/C(=O)Nc1ccc(C(=O)N2CCC[C@@H](Nc3ncc(Cl)c(-c4c[nH]c5ccccc45)n3)C2)cc1
3. CN(C)C(=O)c1cc2cnc(Nc3ccc(N4CCNCC4)cn3)nc2n1C1CCCC1
4. CC[C@@]1(O)C(=O)OCc2c1cc1n(c2=O)Cc2cc3ccccc3nc2-1

Result:
[0.166, 0.0521, 0.0565, 0.0661]

====

System: U2OS
EXPERIMENT: maximum observed lethal fraction; higher = more cell death
SETTINGS: 3.16 µM
Binary call on maximum observed lethal fraction: label 1 from 0.2 upward, label 0 beneath that.

Previously resolved entries follow.
Ask: Could you please find out whether "CC1(C)CCC(CN2CCN(c3ccc(C(=O)NS(=O)(=O)c4ccc(NCC5CCOCC5)c([N+](=O)[O-])c4)c(Oc4cnc5[nH]ccc5c4)c3)CC2)=C(c2ccc(Cl)cc2)C1" has maximum observed lethal fraction that meets 0.2 or exceeds it?
Result: label 0

Ask: Could you please find out whether "CN(C)CC[C@H](CSc1ccccc1)Nc1ccc(S(=O)(=O)NC(=O)c2ccc(N3CCN(Cc4ccccc4-c4ccc(Cl)cc4)CC3)cc2)cc1[N+](=O)[O-]" has maximum observed lethal fraction that meets 0.2 or exceeds it?
Result: label 0

Ask: Could you please find out whether "Nc1ccc(-c2ccc3ncc4ccc(=O)n(-c5cccc(C(F)(F)F)c5)c4c3c2)cn1" has maximum observed lethal fraction that meets 0.2 or exceeds it?
Result: label 1

Ask: Could you please find out whether "O=C(O)C1(C(=O)O)CCC1.[NH2-].[NH2-].[Pt+2]" has maximum observed lethal fraction that meets 0.2 or exceeds it?
Result: label 0

Moving on to the next compound.
Ask: Could you please find out whether "CC(=O)c1c(C)c2cnc(Nc3ccc(N4CCNCC4)cn3)nc2n(C2CCCC2)c1=O" has maximum observed lethal fraction that meets 0.2 or exceeds it?
Result: label 0
